- procedure-summary: Therapeutic range, quotient of LD 50 (mice) and ED 50 (rats)
- Assay type: in vivo
- measurement-context: in vivo; LD 50 mice i.p. / ED 50 rats oral
readout: selectivity ratio
Number only, please.

// below: answered molecules
1. CCc1nc(Cc2ccccc2)c2c(c1OCCCN(C)C)COC2 [Example 29] ... 5.75
2. Cc1nc(Cc2ccccc2)c2c(c1OCCCCN(C(C)C)C(C)C)COC2 [Example 64] ... 7.36
3. Cc1nc(Cc2ccccc2)c2c(c1OCCCCCNC(C)C)COC2 [Example 52] ... 6.5
4. Cc1nc(Cc2ccccc2)c2c(c1OCC(O)CNC(C)C)COC2.Cl (stereo not drawn) [Example 69, hydrochloride] ... 4.65
5. CCOC(=O)c1c(Cc2ccccc2)nc(C)c(OCCCN(C)C)c1C(=O)OCC [Example 25] ... 8.62
6. CCCN(CCC)CCCOc1c(C)nc(Cc2ccccc2)c2c1COC2 [Example 36] ... 8.57
7. CCNCCCCOc1c(C)nc(Cc2ccccc2)c2c1COC2 [Example 58] ... 6.06
8. COC(=O)c1c(Cc2ccccc2)nc(C)c(OCCCN(C)C)c1C(=O)OC [Example 18] ... 17.3

Field: next molecule
Query block: What does the record list as selectivity ratio for CCC(C)NCCCCOc1c(C)nc(Cc2ccccc2)c2c1COC2 (stereo not drawn) [Example 60] ?
Result block: 4.79

###

Listing: Maximum action: Dose (highest nontoxic dose) of selected compounds
- Test system: Aconitineinduced arrhythmia, rats
- procedure-summary: animal or person
- Type: in vivo, rats (Sprague Dawley)
- measurement-context: oral, rats; highest nontoxic dose
Report only the number, with the unit mg/kg understood.

Query block: Lab note: need Maximum action: Dose (highest nontoxic dose) with Aconitineinduced arrhythmia, rats for entry Cc1nc(Cc2ccccc2)c2c(c1OCCCCN(C(C)C)C(C)C)COC2 , please look it up.
Result block: 100

Query block: Lab note: need Maximum action: Dose (highest nontoxic dose) with Aconitineinduced arrhythmia, rats for entry Cc1nc(Cc2ccccc2)c2c(c1OCCCCNCCC(C)(C)O)COC2 , please look it up.
Result block: 100

Query block: Lab note: need Maximum action: Dose (highest nontoxic dose) with Aconitineinduced arrhythmia, rats for entry CCc1nc(Cc2ccccc2)c2c(c1OCCCN(C)C)COC2 , please look it up.
Result block: 215

Query block: Lab note: need Maximum action: Dose (highest nontoxic dose) with Aconitineinduced arrhythmia, rats for entry COC(=O)c1c(Cc2ccccc2)nc(C)c(OCCCN(C)C)c1C(=O)OC , please look it up.
Result block: 215

Query block: Lab note: need Maximum action: Dose (highest nontoxic dose) with Aconitineinduced arrhythmia, rats for entry Cc1nc(Cc2ccccc2)c2c(c1OCCN(C)C)COC2.Cl.Cl , please look it up.
Result block: 68.1

Query block: Lab note: need Maximum action: Dose (highest nontoxic dose) with Aconitineinduced arrhythmia, rats for entry CCCN(CCC)CCCOc1c(C)nc(Cc2ccccc2)c2c1COC2 , please look it up.
Result block: 100

Query block: Lab note: need Maximum action: Dose (highest nontoxic dose) with Aconitineinduced arrhythmia, rats for entry Cc1nc(Cc2ccccc2)c2c(c1OCCC(C)CCNC(C)C)COC2 (stereo not drawn) , please look it up.
Result block: 100

Query block: Lab note: need Maximum action: Dose (highest nontoxic dose) with Aconitineinduced arrhythmia, rats for entry CCNCCCCOc1c(C)nc(Cc2ccccc2)c2c1COC2 , please look it up.
Result block: 100

Query block: Lab note: need Maximum action: Dose (highest nontoxic dose) with Aconitineinduced arrhythmia, rats for entry Cc1nc(Cc2ccccc2)c2c(c1OCCCCNC(C)(C)C)COC2 , please look it up.
Result block: 46.4
